test system: human diploid embryonic lung cell line MRC-5; experiment: XTT cytotoxicity assay on MRC-5 cells; type: cell-based; conditions: 100 µM, XTT
Some compounds, each annotated with its measured Metabolic active MRC-5 cells (%).
Give the quantity in %, number only.

• CCCCCCCCCCCCCC#Cc1cc(=O)c2ccccc2n1C = 93.8
• CCCCCCCCC#Cc1cc(=O)c2ccccc2n1CCC = 14.1
• CCCCCCCCC#CCCc1cc(=O)c2ccccc2n1C = 95.84

Entry CCCCCCCCCCC#CCCc1cc(=O)c2ccccc2n1CC needs its Metabolic active MRC-5 cells (%) filled in; supply it.
8.75

Specify Metabolic active MRC-5 cells (%) for CCCCCCCCCCC#CCCc1cc(=O)c2ccccc2n1CCC and stop.
0.2

Provide one value: measured Metabolic active MRC-5 cells (%) of CCCCCCCCC#Cc1cc(=O)c2ccccc2n1CCCC
28.7

* * *

biological target: M. tuberculosis MurE ligase (Mycobacterium tuberculosis, UniProt P9WJL3); construct: made in house; host or cells: E. coli BL21(DE3)pLysS; experiment: M. tuberculosis MurE inhibition assay (phosphate colorimetric detection); assay type: biochemical; settings: tested at 1000, 300, 100 and 30 µM; IC50 from plot of percent inhibition vs. concentration; read-out: IC50 Mtb MurE
Sequence (P9WJL3 whole entry): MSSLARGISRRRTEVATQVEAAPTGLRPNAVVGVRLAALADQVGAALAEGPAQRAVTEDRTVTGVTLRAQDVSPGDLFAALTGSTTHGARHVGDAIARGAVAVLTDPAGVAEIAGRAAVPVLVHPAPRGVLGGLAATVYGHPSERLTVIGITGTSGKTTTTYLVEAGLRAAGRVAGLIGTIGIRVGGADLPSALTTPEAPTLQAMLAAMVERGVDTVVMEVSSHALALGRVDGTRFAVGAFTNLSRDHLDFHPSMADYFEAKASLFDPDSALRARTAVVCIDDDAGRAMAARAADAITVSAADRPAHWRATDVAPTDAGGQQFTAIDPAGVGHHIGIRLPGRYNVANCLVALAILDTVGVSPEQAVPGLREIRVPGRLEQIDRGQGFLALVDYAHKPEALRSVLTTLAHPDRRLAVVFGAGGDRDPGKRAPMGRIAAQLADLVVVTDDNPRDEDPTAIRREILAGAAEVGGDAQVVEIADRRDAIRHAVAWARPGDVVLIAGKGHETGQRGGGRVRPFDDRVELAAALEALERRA
// boundary case: IC50 equal to 300 µM maps to Not satisfied; strictly smaller maps to Satisfied

Consider the worked cases shown below.
* CCCCCCCCC#CCCc1cc(=O)c2ccccc2n1CCCC | Satisfied
* CCCCCCCCC#CCCc1cc(=O)c2ccccc2n1CCC | Satisfied
* CCCCCCCCCCC#Cc1cc(=O)c2ccccc2n1C | Satisfied
* CCCCCCCCCCC#CCCc1cc(=O)c2ccccc2n1CCC | Satisfied
* CCCCCCCCCCC#CCCc1cc(=O)c2ccccc2n1C | Not satisfied

As a next step, examine the molecule that follows.
Determine whether this molecule shows IC50 lower than 300 µM (ties excluded): CCCCCCCCCCCCC#Cc1cc(=O)c2ccccc2n1C
Not satisfied

* * *

system: human diploid embryonic lung cell line MRC-5; experiment: XTT cytotoxicity assay on MRC-5 cells; type: cell-based; settings: 30 µM, XTT
measure: Metabolic active MRC-5 cells (%)
Record the value in %, omitting the unit from your answer.

- CCCCCCCCCCC#Cc1cc(=O)c2ccccc2n1C [Compound 8n]: 100

Hello, please tell me recorded Metabolic active MRC-5 cells (%) for this one: CCCCCCCCCCCCCC#Cc1cc(=O)c2ccccc2n1C [Compound 8t]
100

Give a short answer stating reported Metabolic active MRC-5 cells (%) for CCCCCCCCCCC#CCCc1cc(=O)c2ccccc2n1C [Compound 8o] .
97.9

Return value of Metabolic active MRC-5 cells (%) for input CCCCCCCCC#Cc1cc(=O)c2ccccc2n1CCCC [Compound 8i] , no commentary.
101

* * *

tested on: human diploid embryonic lung cell line MRC-5; assay: XTT cytotoxicity assay on MRC-5 cells; format: cell-based; conditions: 100 µM, XTT
Label rule, in plain words: Metabolic active MRC-5 cells (%) of 90% and up is condition met, under 90% is condition not met.

* CCCCCCCC#CCCc1cc(=O)c2ccccc2n1CC [Compound 8e, 1-Ethyl-2-(3'-undecynyl)-4(1H)-quinolone] | condition met

# ---- query compound ----
Hi, just wondering whether CCCCCCC#CCCc1cc(=O)c2ccccc2n1CC [Compound 8b, 1-Ethyl-2-(3'-decynyl)-4(1H)-quinolone] shows Metabolic active MRC-5 cells (%) of 90% or higher.
condition not met
